Values were extracted from patent US8372866B2.

Tested on: mechanical hyperalgesia associated with STZ-induced diabetes
assay-notes: STZ-induced diabetes mechanical hyperalgesia, model of neuropathic pain (Randall-Selitto)
Type: in vivo, rat
condition-parameters: 30 mg/Kg IP; NE = not effective
Structures can show the parent of a compound that is named as a salt.
measure-name: MPE 1.5 hrs

Take a look at these entries with their results.
> print(dat)
                                   compound                               system.name  result
1  COc1cccc(C2(O)CCCCC2CN(C)C)c1 (stereo not shown)  mechanical hyperalgesia associated with STZ-induced diabetes     64%
2  CC(=N)Nc1ccc2oc(-c3ccccc3)cc(=O)c2c1 [Example 1, hydrochloride]  mechanical hyperalgesia associated with STZ-induced diabetes     39%
3            CN(C)CCC=C1c2ccccc2CCc2ccccc21  mechanical hyperalgesia associated with STZ-induced diabetes     69%

Report MPE 1.5 hrs for NCC1(CC(=O)O)CCCCC1
41%

###

system-name: recombinant human aggrecanase 2 (ADAMTS-5) (Homo sapiens, UniProt Q9UNA0)
Construct: ADAMTS-5 aminoacids S262-G625 with C-terminal tag
assay-notes: InviLISA Aggrecanase activity assay, aggrecanase 2
Method: The InviLISA Aggrecanase activity assay (Invitek GmbH, Berlin) was used to screen and characterise aggrecanase inhibitors. The assay was carried out in two steps, according to Will et al. (Will H, Dettloff M, Bendzko P, Svenshnikov P, A Quantitative Assay for aggrecanase Activity; 2005, Journal of Biomolecular Techniques, 16 (4), 459-472). […] 2) Aggrecan peptide ELISA. […] The bound ARGSVIL-peptide was detected with a second peroxidase-labelled antibody. […]
Counter-ions that a name gives are not always drawn.
pIC50 overview
Remember the convention: pIC50 equals -log10 of concentration in molar.

Report pIC50 for CC(=N)Nc1ccc2oc(-c3ccc4c(c3)OCO4)c(O)c(=O)c2c1 [Example 16, hydrochloride]
5.30

###

System: mechanical hyperalgesia associated with STZ-induced diabetes
assay-notes: STZ-induced diabetes mechanical hyperalgesia, model of neuropathic pain (Randall-Selitto)
Format: in vivo, rat
condition-parameters: 30 mg/Kg IP; NE = not effective
Text: Painful diabetic neuropathy is one of the most common complications of insulin-dependent diabetes in man; in particular, diabetes can be associated with neuropathic pain which fails to be treated by classical analgesics. […] In the following four weeks after the induction of diabetes the clinical symptoms (weight, body and skin temperature, motility and hyperglycemia) progressively developed by the animals, are strictly monitored. […]
Where a name gives a salt, the structure may show the parent alone.
measure-name: MPE 0.5 hrs (%)
Report the figure in % without appending any unit label.

> print(dat)
                         compound  measure.name  numeric.readout
1  CN(C)CCC=C1c2ccccc2CCc2ccccc21   MPE 0.5 hrs               65

Fill in MPE 0.5 hrs for NCC1(CC(=O)O)CCCCC1 tested with mechanical hyperalgesia associated with STZ-induced diabetes.
39

Fill in MPE 0.5 hrs for COc1cccc(C2(O)CCCCC2CN(C)C)c1 (stereo not shown) tested with mechanical hyperalgesia associated with STZ-induced diabetes.
54

Fill in MPE 0.5 hrs for CC(=N)Nc1ccc2oc(-c3ccccc3)cc(=O)c2c1 [Example 1, hydrochloride] tested with mechanical hyperalgesia associated with STZ-induced diabetes.
113

###

melting point overview
Counter-ions that a name gives are not always drawn.

Take a look at these entries with their results.
compound	melting point
CC(=N)Nc1ccc2oc(-c3ccc(-n4ccnc4)cc3)c(O)c(=O)c2c1 (as salt: hydrochloride)	311.7 to 312.1 °C
N=C(CC1CC1)Nc1ccc2oc(-c3ccc(-n4ccnc4)cc3)c(O)c(=O)c2c1 (as salt: hydrochloride) (hydrate or solvate) [Example 6, dihydrochloride monohydrate]	249.1 to 251.1 °C
CC(=N)Nc1ccc2oc(-c3ccc4c(c3)OCO4)cc(=O)c2c1 (as salt: hydrochloride)	272.7 to 273.3 °C

Report melting point for CC(=N)Nc1ccc2oc(-c3ccc4c(c3)OCO4)c(O)c(=O)c2c1 (as salt: hydrochloride)
262.3 to 262.9 °C

Report melting point for CC(=N)Nc1ccc2oc(-c3ccc(O)nc3)c(O)c(=O)c2c1 (as salt: hydrochloride)
284.5 to 286 °C

Report melting point for CC(=N)Nc1ccc2oc(-c3ccc4c(c3)CCO4)c(O)c(=O)c2c1 (as salt: hydrochloride)
291 to 292 °C

###

system-name: recombinant human aggrecanase 2 (ADAMTS-5) (Homo sapiens)
Construct: ADAMTS-5 aminoacids S262-G625 with C-terminal tag
Sequence (Q9UNA0 262-625): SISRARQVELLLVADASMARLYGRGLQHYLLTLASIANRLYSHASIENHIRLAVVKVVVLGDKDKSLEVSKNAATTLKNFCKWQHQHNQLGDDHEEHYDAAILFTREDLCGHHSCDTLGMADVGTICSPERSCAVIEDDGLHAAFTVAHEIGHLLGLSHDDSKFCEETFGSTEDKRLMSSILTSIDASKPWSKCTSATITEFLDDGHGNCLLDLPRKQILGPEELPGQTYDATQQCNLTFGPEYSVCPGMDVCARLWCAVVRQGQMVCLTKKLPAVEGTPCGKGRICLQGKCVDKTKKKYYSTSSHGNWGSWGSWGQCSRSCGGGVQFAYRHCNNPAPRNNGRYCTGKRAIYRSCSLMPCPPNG
assay-notes: InviLISA Aggrecanase activity assay, aggrecanase 2
Where a name gives a salt, the structure may show the parent alone.
measure-name: pIC50
Remember the convention: pIC50 equals -log10 of concentration in molar.

> print(dat)
                                   compound  measure.name  numeric.readout
1  CC(=N)Nc1ccc2oc(-c3ccc(-n4ccnc4)cc3)c(O)c(=O)c2c1 [Example 5, hydrochloride]         pIC50             6.06
2  CC(=N)Nc1ccc2oc(-c3ccc4c(c3)CCO4)c(O)c(=O)c2c1 [Example 15, hydrochloride]         pIC50             4.82
3  N=C(CC1CC1)Nc1ccc2oc(-c3ccc(-n4ccnc4)cc3)c(O)c(=O)c2c1 [Example 6, dihydrochloride monohydrate]         pIC50             6.70
4  CC(=N)Nc1ccc2oc(-c3cccc(-n4ccnc4)c3)c(O)c(=O)c2c1 [Example 8, dihydrochloride]         pIC50             5.00

Fill in pIC50 for COCCC(=N)Nc1ccc2oc(-c3ccc4c(c3)OCO4)c(O)c(=O)c2c1 [Example 19, hydrochloride] tested with recombinant human aggrecanase 2 (ADAMTS-5) (Homo sapiens).
5.10

Fill in pIC50 for COc1ccc(C(=N)Nc2ccc3oc(-c4ccc(OC)cc4)c(O)c(=O)c3c2)cc1 [Example 14, hydrochloride] tested with recombinant human aggrecanase 2 (ADAMTS-5) (Homo sapiens).
5.00
